FYI, the data here is from paper PMC9861092.

Entries with reported TI (therapeutic index = CC50/IC50) on PRV (Pseudorabies virus)
Numbers only.

                                   molecule  value_measured
0  CC(C)=CCC/C(C)=C/C[C@@]12OC(C)(C)[C@H](Cl)C[C@]1(Cl)C(=O)c1c(O)cc(O)cc1C2=O [Compound 3, napyradiomycin A1]            2.62

Hi! Can you tell me TI (therapeutic index = CC50/IC50) for each of these molecules?
1. CC(C)=CCC/C(C)=C/C[C@@]12O[C@]1(CC=C(C)C)C(=O)c1c(O)cc(O)cc1C2=O [Compound 5, A80915G]
2. CC(=CCC12OC(C)(C)C(Cl)CC1(Cl)C(=O)c1c(O)cc(O)cc1C2=O)CCC(=O)C(C)C (stereo not shown) [Compound 1, napyradiomycin A4]

Result ::
1. 2.05
2. 14.98
